Tested on: diaphorase
Experiment: fluorescently labeled diaphorase binding to peptide array with or without excess FAD
Conditions: ratio of binding without FAD to binding with FAD, 10 micromolar diaphorase
Consider the following sequences; for each one, report its 10 microM noFAD/FAD.
One number for each entry.

# annotated cases, reported 10 microM noFAD/FAD shown
INSERT INTO results (seq, observed_measurement) VALUES
  ('AFYGLELGGSG [array peptide with C-terminal GSG linker]', 0.4504),
  ('KNRPYNKDLEDGSG [array peptide with C-terminal GSG linker]', 0.9742),
  ('RQAYLFGGSG [array peptide with C-terminal GSG linker]', 1.023),
  ('FQFGKVVSDGSG [array peptide with C-terminal GSG linker]', 0.6309);

Fill in 10 microM noFAD/FAD for each of the 3 sequences listed.
1. YSVDYWYQVDGSG [array peptide with C-terminal GSG linker]
2. VVQALFDGSG [array peptide with C-terminal GSG linker]
3. KEAPGPRFGGSG [array peptide with C-terminal GSG linker]

Given back:
1. 1.029
2. 0.4475
3. 1.027
